Target: CaSla1-D3
Experiment: SPOT peptide array binding signal intensity (averaged, normalized) (arbitrary units (background-subtracted, floor 0; scale differs between SH3 domains)); higher = stronger binding of the SH3 domain to the peptide
Response key: rule met means SPOT peptide array binding signal intensity >= 20; rule not met means SPOT peptide array binding signal intensity < 20.

| binder | label_value |
| --- | --- |
| GDHPKGPPPPPPPPD | rule not met |
| SLSRRRFSLPSMPNV | rule met |
| RSKRLFPVRPMATAH | rule met |
| KWVRRPKLMTPLTFS | rule met |
| FLIKFTPKFPQSIDH | rule met |
| RVTRKRPREPKSTND | rule not met |
| KTITLEVESSDTIDN | rule not met |
| PPLPRAPPVPPATFE | rule not met |
| MSPLGAPPPPPHKDH | rule not met |
| TPTSGPPLLPPRNTM | rule met |
| LLGRKRPVMERVVDI | rule met |
| ALKQKKIPPPFKPHL | rule not met |
| GSKSGPPPRPKKPST | rule met |
| QNTPPLPPKPKSPHL | rule not met |
| VAPPPLPNRQLPNLD | rule not met |

Every entry's value here was drawn from the supplement of paper PMC4466140.
